# target-of-assay: CYP2D6 (Homo sapiens, UniProt P10635)
# Construct: from tissue; host or cells: human liver microsomes (HLM)
# Sequence (P10635 whole entry): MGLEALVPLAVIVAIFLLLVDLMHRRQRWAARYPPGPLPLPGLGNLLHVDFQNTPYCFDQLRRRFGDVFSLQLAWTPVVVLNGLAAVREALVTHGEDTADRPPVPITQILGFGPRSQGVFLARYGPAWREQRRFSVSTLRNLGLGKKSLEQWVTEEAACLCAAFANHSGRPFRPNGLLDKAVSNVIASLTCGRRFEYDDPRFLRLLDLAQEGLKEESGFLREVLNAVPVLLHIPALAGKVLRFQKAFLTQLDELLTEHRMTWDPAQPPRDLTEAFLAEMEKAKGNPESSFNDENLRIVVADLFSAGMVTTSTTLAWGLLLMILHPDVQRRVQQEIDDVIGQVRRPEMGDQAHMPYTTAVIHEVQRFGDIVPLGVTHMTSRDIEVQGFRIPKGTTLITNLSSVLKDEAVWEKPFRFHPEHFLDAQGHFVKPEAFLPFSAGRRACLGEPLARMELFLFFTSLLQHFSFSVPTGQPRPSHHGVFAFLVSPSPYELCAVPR
# experimental-protocol: Inhibition of human liver microsomal CYP450 enzymes, CYP2D6
# Type: in vitro ADME
# measurement-conditions: human liver microsomes, substrate Bufuralol 10 μM; Reference = quinidine; read-out: IC50 2D6
parameter: IC50

Enquiry: Given the entry NC(=O)c1cccc2cn(-c3ccc([C@@H]4CCCNC4)cc3)nc12 [Niraparib, reference compound] , report its measured IC50.
Return: > 10 µM

---

# experimental-protocol: in vivo
# measurement-conditions: male, Sprague-Dawley, rat, in vivo, po, 10 mg/kg, AUC
# Description: SD rats were used as test animals, and the drug concentrations in plasma at different times after intravenous and intragastric administration of the compounds of examples were determined by LC/MS/MS method(s) to study the pharmacokinetics of the compound in the present disclosure in rats Healthy adult male SD (Sprague-Dawley) rats, 3 animals per test compound, 6-9 weeks old, weighing 250±50 g, were purchased from Shanghai SLAC Laboratory Animal Co., Ltd. […]
parameter: AUC (µg·h/mL)
The figure you give is taken to be in µg·h/mL; do not add the unit.

Enquiry: Given the entry NC(=O)c1cccc2cn(-c3ccc([C@]4(F)CCCNC4)cc3)nc12 (single isomer, unassigned) , report its measured AUC.
Return: 3.06

---

# target-of-assay: PARP1 (Homo sapiens)
# Construct: purchased BPS 80580
# experimental-protocol: PARP1 Colorimetric Assay (PARP-1 kinase inhibitory activity)
# Type: biochemical
# measurement-conditions: PARP1 colorimetric assay kit, 1 hour at room temperature; read-out: PARP1 (in vitro enzymatic inhibitory activity, IC50)
parameter: IC50

Worked cases, answers included:
Enquiry: Given the entry C[C@]1(c2ccc(-n3cc4cccc(C(N)=O)c4n3)cc2)CCCNC1 (single isomer, unassigned) [Example 45] , report its measured IC50.
Return: 0.1 to 0.5 µM

Enquiry: Given the entry `C[C@]1(c2ccc(-n3cc4cccc(C(N)=O)c4n3)cc2F)CCCNC1` , report its measured IC50.
Return: 0.1 to 0.5 µM

Enquiry: Given the entry `[2H][C@@]1(c2ccc(-n3cc4cc(F)cc(C(N)=O)c4n3)cc2)CCCNC1` , report its measured IC50.
Return: < 0.1 µM

Enquiry: Given the entry `[2H][C@]1(c2ccc(-n3cc4cc(F)cc(C(N)=O)c4n3)cc2F)CCCNC1` , report its measured IC50.
Return: < 0.1 µM

Enquiry: Given the entry `NC(=O)c1ccc(F)c2cn(-c3ccc([C@]4(F)CCCNC4)cc3)nc12` , report its measured IC50.
Return: 0.1 to 0.5 µM

***
Enquiry: Given the entry `NC(=O)c1cccc2cn(-c3ccc([C@@]4(F)CCCNC4)c(F)c3)nc12` , report its measured IC50.
Return: < 0.1 µM

Enquiry: Given the entry CC1(c2ccc(-n3cc4cccc(C(N)=O)c4n3)c(F)c2)CCCNC1 (centres unmarked) , report its measured IC50.
Return: 0.1 to 0.5 µM

Enquiry: Given the entry `NC(=O)c1cccc2cn(-c3ccc([C@]4(F)CCCNC4)cc3F)nc12` , report its measured IC50.
Return: 0.1 to 0.5 µM

---

# target-of-assay: PARP1 (Homo sapiens, UniProt P09874)
# Sequence (P09874 whole entry): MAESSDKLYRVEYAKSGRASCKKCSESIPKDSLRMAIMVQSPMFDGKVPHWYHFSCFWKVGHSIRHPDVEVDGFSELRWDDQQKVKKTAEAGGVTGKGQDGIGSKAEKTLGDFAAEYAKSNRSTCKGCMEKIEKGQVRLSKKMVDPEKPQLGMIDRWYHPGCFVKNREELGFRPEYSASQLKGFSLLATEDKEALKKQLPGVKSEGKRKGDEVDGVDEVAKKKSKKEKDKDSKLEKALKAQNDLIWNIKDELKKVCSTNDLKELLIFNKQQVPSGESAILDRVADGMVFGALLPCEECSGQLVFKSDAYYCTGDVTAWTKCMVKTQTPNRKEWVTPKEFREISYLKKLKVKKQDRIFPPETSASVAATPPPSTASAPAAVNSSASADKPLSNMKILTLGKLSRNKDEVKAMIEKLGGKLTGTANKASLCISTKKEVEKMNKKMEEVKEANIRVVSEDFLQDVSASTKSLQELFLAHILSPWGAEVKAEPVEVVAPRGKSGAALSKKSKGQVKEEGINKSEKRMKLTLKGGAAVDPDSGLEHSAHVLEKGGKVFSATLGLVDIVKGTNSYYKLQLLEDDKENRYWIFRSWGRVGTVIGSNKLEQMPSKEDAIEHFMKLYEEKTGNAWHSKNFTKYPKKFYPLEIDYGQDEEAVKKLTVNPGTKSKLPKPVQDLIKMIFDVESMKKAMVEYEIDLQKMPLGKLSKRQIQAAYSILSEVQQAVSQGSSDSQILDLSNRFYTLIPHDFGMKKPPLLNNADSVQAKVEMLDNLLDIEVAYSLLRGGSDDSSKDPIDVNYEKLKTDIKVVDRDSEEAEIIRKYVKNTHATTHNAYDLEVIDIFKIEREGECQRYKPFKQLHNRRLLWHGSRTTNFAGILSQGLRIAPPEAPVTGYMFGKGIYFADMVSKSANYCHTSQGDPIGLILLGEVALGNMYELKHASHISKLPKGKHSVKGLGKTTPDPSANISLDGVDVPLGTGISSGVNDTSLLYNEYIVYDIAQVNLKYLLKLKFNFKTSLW
pIC50: −log10 of the molar value.
parameter: pIC50

Enquiry: Notebook entry, PARP1 (Homo sapiens, UniProt P09874) assay: pIC50 of CC1(c2ccc(-n3cc4cccc(C(N)=O)c4n3)cc2F)CCCNC1 (stereo not drawn) = ?
Return: 6.30 to 7.00

Enquiry: Notebook entry, PARP1 (Homo sapiens, UniProt P09874) assay: pIC50 of `[2H][C@]1(c2ccc(-n3cc4cc(F)cc(C(N)=O)c4n3)cc2)CCCNC1` = ?
Return: > 7.00

---

# experimental-protocol: in vivo
# measurement-conditions: male, Sprague-Dawley, rat, in vivo, po, 10 mg/kg, MRT
# Protocol: SD rats were used as test animals, and the drug concentrations in plasma at different times after intravenous and intragastric administration of the compounds of examples were determined by LC/MS/MS method(s) to study the pharmacokinetics of the compound in the present disclosure in rats Healthy adult male SD (Sprague-Dawley) rats, 3 animals per test compound, 6-9 weeks old, weighing 250±50 g, were purchased from Shanghai SLAC Laboratory Animal Co., Ltd. […]
parameter: MRT (h)
The figure you give is taken to be in h; do not add the unit.

Enquiry: Given the entry NC(=O)c1cccc2cn(-c3ccc([C@]4(F)CCCNC4)cc3)nc12 (single isomer, unassigned) , report its measured MRT.
Return: 7.12

---

Dear all, this message contains IC50 results, target or system UniProt P11712.
Sequence (P11712 whole entry): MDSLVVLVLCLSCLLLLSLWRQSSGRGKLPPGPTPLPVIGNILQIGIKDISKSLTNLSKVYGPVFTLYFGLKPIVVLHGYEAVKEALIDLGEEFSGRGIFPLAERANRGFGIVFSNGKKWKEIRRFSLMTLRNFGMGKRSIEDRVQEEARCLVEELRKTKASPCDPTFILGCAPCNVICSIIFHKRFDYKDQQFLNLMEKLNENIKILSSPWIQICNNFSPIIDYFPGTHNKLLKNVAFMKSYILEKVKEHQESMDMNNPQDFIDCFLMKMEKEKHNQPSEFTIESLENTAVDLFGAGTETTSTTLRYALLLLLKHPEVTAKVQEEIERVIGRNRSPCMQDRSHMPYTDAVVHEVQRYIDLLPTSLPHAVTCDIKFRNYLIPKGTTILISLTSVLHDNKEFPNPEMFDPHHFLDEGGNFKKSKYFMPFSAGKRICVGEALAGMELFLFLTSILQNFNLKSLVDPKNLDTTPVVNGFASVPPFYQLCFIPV

Enquiry: Given the entry NC(=O)c1cccc2cn(-c3ccc([C@]4(F)CCCNC4)cc3)nc12 (single isomer, unassigned) [Example 23] , report its measured IC50.
Return: > 10 µM

***
Enquiry: Given the entry NC(=O)c1cccc2cn(-c3ccc([C@@H]4CCCNC4)cc3)nc12 [Niraparib, reference compound] , report its measured IC50.
Return: > 10 µM

---

# experimental-protocol: Liver microsomal stability in vitro, human
# Type: in vitro ADME
# measurement-conditions: pH 7.4; human liver microsomes 0.5 mg protein/mL, 1 μM test compound, 37° C.; read-out: Human T1/2
parameter: half-life at 1 μM

Enquiry: Given the entry NC(=O)c1cccc2cn(-c3ccc([C@@H]4CCCNC4)cc3)nc12 [Niraparib, reference compound] , report its measured half-life at 1 μM.
Return: > 2.42 h

Let's switch to this compound now.
Enquiry: Given the entry NC(=O)c1cccc2cn(-c3ccc([C@]4(F)CCCNC4)cc3)nc12 (single isomer, unassigned) [Example 23] , report its measured half-life at 1 μM.
Return: > 2.42 h

---

# target-of-assay: CYP1A2 (Homo sapiens)
# Sequence (P05177 1-516): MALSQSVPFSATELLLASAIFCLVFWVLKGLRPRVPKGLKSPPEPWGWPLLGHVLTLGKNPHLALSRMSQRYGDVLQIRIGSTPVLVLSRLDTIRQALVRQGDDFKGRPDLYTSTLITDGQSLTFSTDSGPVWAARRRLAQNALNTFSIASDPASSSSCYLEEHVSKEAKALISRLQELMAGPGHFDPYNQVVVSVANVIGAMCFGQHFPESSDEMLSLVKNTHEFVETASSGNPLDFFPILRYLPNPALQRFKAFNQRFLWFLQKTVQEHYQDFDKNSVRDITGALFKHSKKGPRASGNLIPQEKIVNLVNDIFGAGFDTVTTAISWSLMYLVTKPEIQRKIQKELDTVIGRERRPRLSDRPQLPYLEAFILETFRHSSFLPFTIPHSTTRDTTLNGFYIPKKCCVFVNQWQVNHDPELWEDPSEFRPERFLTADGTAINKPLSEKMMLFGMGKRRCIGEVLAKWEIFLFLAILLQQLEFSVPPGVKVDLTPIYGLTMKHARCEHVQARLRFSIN
pIC50: −log10 of the molar value.
Entries annotated with measured pIC50

Enquiry: Notebook entry, CYP1A2 (Homo sapiens) assay: pIC50 of NC(=O)c1cccc2cn(-c3ccc([C@]4(F)CCCNC4)cc3)nc12 (single isomer, unassigned) [Example 23] = ?
Return: < 5.00

Let's switch to this compound now.
Enquiry: Notebook entry, CYP1A2 (Homo sapiens) assay: pIC50 of NC(=O)c1cccc2cn(-c3ccc([C@@H]4CCCNC4)cc3)nc12 [Niraparib, reference compound] = ?
Return: < 5.00

---

# target-of-assay: hERG potassium ion channel (Homo sapiens, UniProt Q12809)
# Sequence (Q12809 whole entry): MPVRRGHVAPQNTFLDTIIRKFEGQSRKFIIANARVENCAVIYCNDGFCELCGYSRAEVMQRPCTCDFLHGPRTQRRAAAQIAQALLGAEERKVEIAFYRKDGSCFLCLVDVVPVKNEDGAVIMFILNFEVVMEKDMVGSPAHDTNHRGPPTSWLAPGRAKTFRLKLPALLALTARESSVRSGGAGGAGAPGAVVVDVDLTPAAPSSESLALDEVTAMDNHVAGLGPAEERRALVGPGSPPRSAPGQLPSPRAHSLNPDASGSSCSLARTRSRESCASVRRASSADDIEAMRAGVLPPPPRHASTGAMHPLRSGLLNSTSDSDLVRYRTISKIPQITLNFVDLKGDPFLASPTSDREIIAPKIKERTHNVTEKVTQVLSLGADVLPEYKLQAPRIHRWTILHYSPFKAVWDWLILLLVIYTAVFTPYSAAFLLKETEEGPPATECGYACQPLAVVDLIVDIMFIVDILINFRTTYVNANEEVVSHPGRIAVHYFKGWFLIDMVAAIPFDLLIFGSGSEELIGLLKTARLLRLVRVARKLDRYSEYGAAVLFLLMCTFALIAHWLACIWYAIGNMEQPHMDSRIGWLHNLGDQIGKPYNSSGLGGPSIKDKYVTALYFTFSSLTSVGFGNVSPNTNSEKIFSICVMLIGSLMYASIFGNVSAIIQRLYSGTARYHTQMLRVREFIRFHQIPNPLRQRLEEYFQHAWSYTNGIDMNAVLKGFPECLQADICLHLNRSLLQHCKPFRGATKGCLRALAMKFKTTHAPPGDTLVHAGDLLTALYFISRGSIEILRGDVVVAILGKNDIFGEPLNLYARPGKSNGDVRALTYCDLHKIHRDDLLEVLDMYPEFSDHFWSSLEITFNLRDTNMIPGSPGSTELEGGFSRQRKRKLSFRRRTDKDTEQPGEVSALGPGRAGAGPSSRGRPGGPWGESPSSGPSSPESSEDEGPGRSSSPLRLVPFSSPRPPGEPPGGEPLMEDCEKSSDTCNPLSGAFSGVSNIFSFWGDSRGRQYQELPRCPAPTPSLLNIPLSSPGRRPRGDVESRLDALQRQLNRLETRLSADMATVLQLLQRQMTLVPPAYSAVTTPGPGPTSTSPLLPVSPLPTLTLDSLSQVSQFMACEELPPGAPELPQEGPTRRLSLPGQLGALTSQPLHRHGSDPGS
# experimental-protocol: in vitro
# measurement-conditions: human
parameter: inhibition at 2.5 min, 40 µM (%)
The figure you give is taken to be in %; do not add the unit.

Enquiry: Given the entry NC(=O)c1cccc2cn(-c3ccc([C@]4(F)CCCNC4)cc3)nc12 (single isomer, unassigned) , report its measured inhibition at 2.5 min, 40 µM.
Return: 29.8

Let's switch to this molecule now.
Enquiry: Given the entry COc1cc(N)c(Cl)cc1C(=O)NC1CCN(CCCOc2ccc(F)cc2)CC1OC (centres unmarked) [Cisapride] , report its measured inhibition at 2.5 min, 40 µM.
Return: 87.4

---

# target-of-assay: hERG potassium ion channel (Homo sapiens, UniProt Q12809)
# experimental-protocol: hERG potassium ion channel inhibitory activity (Qpatch, CHO-hERG cells)
# Method: CHO-hERG cells were cultured in a 175 cm^2 flask, and when the cell density was increased to 60-80%, the medium was removed and washed with 7 mL of PBS (Phosphate Buffered Saline phosphate buffer), and then digested with 3 mL of Detachin. The single-cell high impedance sealing and the whole-cell mode formation process were all automatically completed by the Qpatch instrument. […] The experimental data were analyzed by XLFit software.
parameter: pIC50
Answer as the number alone; pIC50 is minus log10 of concentration in mol/L.

Enquiry: Given the entry NC(=O)c1cccc2cn(-c3ccc([C@@H]4CCCNC4)cc3)nc12 [Niraparib, reference compound] , report its measured pIC50.
Return: 4.40
